Test system: UACC-257 melanoma
Experiment: NCI tumour cell line growth inhibition, 48 h
Readings of TGI for the listed molecules
assay.metric: TGI

- molecule: "C#C[C@]1(O)CC[C@H]2[C@@H]3CCc4cc(O)ccc4[C@H]3CC[C@@]21C"
  assay.metric: "TGI"
  result: "> 100 µM"
- molecule: "CCc1n[nH]c(=O)n1/N=C(\\C)c1ccccc1"
  assay.metric: "TGI"
  result: "> 100 µM"
- molecule: "COc1cc(C2c3cc4c(cc3C(=O)C3CCC(=O)N32)OCO4)cc(OC)c1O (configuration not stated)"
  assay.metric: "TGI"
  result: "> 50 µM"
- molecule: "CCn1c(-c2nonc2N)nc2cnc(Oc3cccc(NC(=O)c4ccc(N(C)C)cc4)c3)cc21"
  assay.metric: "TGI"
  result: "> 25 µM"
- molecule: "COc1cc(/C=C2\\SC(N3CCCCC3)=NC2=O)ccc1OCCCCCCOc1ccc(/C=C2\\SC(N3CCCCC3)=NC2=O)cc1OC"
  assay.metric: "TGI"
  result: "47.6 µM"
- molecule: "N#[N+]c1ccc(Nc2ccccc2)cc1"
  assay.metric: "TGI"
  result: "> 50 µg/mL"
- molecule: "CC1(C)OC(=O)C(=C2CCC(C(=O)Nc3cccc(C(F)(F)F)c3)N2)C(=O)O1 (configuration not stated)"
  assay.metric: "TGI"
  result: "> 100 µM"
- molecule: "COc1cc([C@@H]2c3cc4c(cc3[C@@H](NCc3cccc(C#N)c3)C3COC(=O)[C@@H]32)OCO4)cc(OC)c1O (some centres not stated)"
  assay.metric: "TGI"
  result: "> 100 µM"
- molecule: "O=[N+]1[C@H](c2ccccc2)[C@H](c2ccccc2)N1[O-]"
  assay.metric: "TGI"
  result: "26.3 µM"
- molecule: "COc1cc(OC)c2c(=O)c3cccc([N+](=O)[O-])c3n(C)c2c1"
  assay.metric: "TGI"
  result: "> 100 µM"
- molecule: "Cc1c(/C=N/NC(=S)N2CCCCC2)c(=O)n(-c2ccccc2)n1C"
  assay.metric: "TGI"
  result: "> 100 µM"
- molecule: "OCCN(CO)CO"
  assay.metric: "TGI"
  result: "> 100 µM"
- molecule: "CC(=O)Nc1cccc(N2C(=O)/C(=C\\c3cccc(Oc4ccccc4)c3)SC2c2ccccc2)c1 (configuration not stated)"
  assay.metric: "TGI"
  result: "> 100 µM"
- molecule: "CC(=O)/C(=C\\I)c1ccccc1"
  assay.metric: "TGI"
  result: "15.5 µM"
- molecule: "CC(C)(C)OC(=O)N1CCCC1C(=O)NC(c1ccccc1)c1ccccc1 (configuration not stated)"
  assay.metric: "TGI"
  result: "> 100 µM"
- molecule: "C=C1C[C@@H]2O[C@H]3[C@H]4[C@@H](CC[C@@](C)(OC(=O)CCC)[C@H]42)[C@@H](C)C(=O)O[C@@]3(C)CC[C@H]1OO"
  assay.metric: "TGI"
  result: "76.7 µM"
- molecule: "C=C1C(=O)O[C@H]2C1C[C@H](O)[C@@]1(C)OC1CC[C@@]1(C)O[C@H]21 (some centres not stated)"
  assay.metric: "TGI"
  result: "37.8 µM"
- molecule: "C=CC(=O)Nc1cc2c(Nc3ccc(F)c(Cl)c3)ncnc2cc1C#CC(C)(C)N1CCN(C)CC1"
  assay.metric: "TGI"
  result: "5.56 µM"
- molecule: "Cn1cnnc1[S-].[Au+].c1ccc([PH+](c2ccccc2)c2ccccc2)cc1"
  assay.metric: "TGI"
  result: "2.94 µM"
- molecule: "C=CCN1CCC(c2cc(C(=O)OCC)[nH]c2-c2cc(C)no2)C1=O (configuration not stated)"
  assay.metric: "TGI"
  result: "> 100 µM"
- molecule: "COc1ccccc1C(=O)N(Cc1ccccc1)c1ccc(Cl)c(C(=O)OC(C)C)c1"
  assay.metric: "TGI"
  result: "> 88.7 µM"
- molecule: "O=C(Cc1nc2ccccc2[nH]c1=O)c1c[nH]c2ccccc12"
  assay.metric: "TGI"
  result: "> 100 µM"
- molecule: "Cc1cc(NS(=O)(=O)c2ccc(N=[N+]([O-])c3ccc(S(=O)(=O)Nc4cc(C)on4)cc3)cc2)no1"
  assay.metric: "TGI"
  result: "> 100 µM"
- molecule: "CC(C)OP(=O)(O)c1ncc(-c2ccc(C(F)(F)F)cc2)c(NC2CCCCCC2)n1"
  assay.metric: "TGI"
  result: "> 100 µM"
- molecule: "Cn1c(=O)c2c(nc(N/N=C/c3ccccc3C(=O)O)n2C)n(C)c1=O"
  assay.metric: "TGI"
  result: "> 100 µM"
- molecule: "C[As](C)SC1OCC(O)C(O)C1O (configuration not stated)"
  assay.metric: "TGI"
  result: "7.22 µM"
- molecule: "O=[N+]([O-])c1cccc(Nc2nc(Cl)nc(Cl)n2)c1"
  assay.metric: "TGI"
  result: "> 100 µM"
- molecule: "O=[N+]([O-])/C=C/c1ccc(Cl)cc1[N+](=O)[O-]"
  assay.metric: "TGI"
  result: "24.9 µM"
- molecule: "CSc1nc(=O)cnn1C"
  assay.metric: "TGI"
  result: "> 100 µM"
- molecule: "CCOP(=O)(O)C(Nc1ccc(N=Nc2ccccc2)cc1)c1cccc(C(Nc2ccc(N=Nc3ccccc3)cc2)P(=O)(O)OCC)c1 (configuration not stated)"
  assay.metric: "TGI"
  result: "> 100 µM"
- molecule: "CC1(C)N=C(N)N=C(N)N1c1cccc(CCc2ccccc2)c1"
  assay.metric: "TGI"
  result: "32.5 µM"
- molecule: "O=CNc1ccccc1OCCOc1ccccc1NC=O"
  assay.metric: "TGI"
  result: "> 100 µM"
- molecule: "COc1ccc(-c2nc(Nc3ccccc3)sc2Cc2sc(Nc3ccccc3)nc2-c2ccc(OC)cc2)cc1"
  assay.metric: "TGI"
  result: "> 100 µM"
- molecule: "CCOC(=O)CCC(NC(=O)c1ccc(NC(OC)c2nc3cc(C(F)(F)F)ccc3nc2-c2ccccc2)cc1)C(=O)OCC (configuration not stated)"
  assay.metric: "TGI"
  result: "32.2 µM"
- molecule: "O=[N+]([O-])c1cccc2nccc(NCCN3CCOCC3)c12"
  assay.metric: "TGI"
  result: "29 µM"
- molecule: "Oc1ccccc1C=Nc1ccc(-c2nc3ccccc3s2)cc1"
  assay.metric: "TGI"
  result: "67.5 µM"
- molecule: "CN(C)c1ccc(-c2ccc(-c3ccc(C(=N)N)cn3)o2)cc1"
  assay.metric: "TGI"
  result: "3.43 µM"
- molecule: "CCOC(=O)c1nc2ccc(C(F)(F)F)cc2nc1Nc1ccc(OC)cc1"
  assay.metric: "TGI"
  result: "> 100 µM"
- molecule: "Cc1nn(C(=O)c2ccncc2)c2c1C(c1ccccc1[N+](=O)[O-])SC(N)=N2 (configuration not stated)"
  assay.metric: "TGI"
  result: "> 10 µM"
- molecule: "C/C(C=O)=C/[C@@]1(C)O[C@@H](C)[C@@](C)(O)[C@@H]1O"
  assay.metric: "TGI"
  result: "> 100 µM"
- molecule: "O=C1NC2(CCNCC2)Oc2ccccc21"
  assay.metric: "TGI"
  result: "> 100 µM"
- molecule: "CC(=O)OCC1OC(n2c3c(cc(C#N)c2=S)CCCC3)C(OC(C)=O)C(OC(C)=O)C1OC(C)=O (configuration not stated)"
  assay.metric: "TGI"
  result: "> 100 µM"
